IC50 overview
- measurement notes: Inhibition of seed bug sodium/potassium-ATPase incubated for 20 mins by Spectrophotometric analysis
- Set-up: species or system Oncopeltus fasciatus
measured parameter: IC50 (µM)

INSERT INTO assay_data (input_smiles, assay_value) VALUES
  ('C[C@@H]1C[C@@H](O[C@@H]2O[C@H](CO)[C@@H](O)[C@H](O)[C@H]2O)[C@]2(O)O[C@@H]3C[C@@]4(C)[C@@H](C[C@@H]5O[C@]56[C@@H]4[C@H](O)[C@H](O)[C@]4(C)[C@@H](C5=CC(=O)OC5)CC[C@@]46O)C[C@H]3O[C@@H]2O1', 1960),
  ('C[C@@H]1C[C@@]2(N=CCS2)[C@]2(O)O[C@@H]3C[C@@]4(C)[C@@H](C[C@@H]5O[C@]56[C@@H]4[C@H](O)C(=O)[C@]4(C)[C@@H](C5=CC(=O)OC5)CC[C@]64O)C[C@H]3O[C@@H]2O1', 220),
  ('C[C@@H]1O[C@@H](O[C@H]2C[C@@H](O)[C@]3(CO)[C@H]4[C@H](O)C[C@]5(C)[C@@H](C6=CC(=O)OC6)CC[C@]5(O)[C@@H]4CC[C@]3(O)C2)[C@H](O)[C@H](O)[C@H]1O', 2100),
  ('C[C@H]1O[C@@H](O[C@H]2CC[C@@]3(C)[C@H](C2)C[C@@H]2O[C@]24[C@@H]3C[C@@H](O)[C@]2(C)[C@@H](C3=CC(=O)OC3)CC[C@@]24O)[C@H](O)[C@H](O)[C@@H]1O[C@@H]1O[C@H](CO)[C@@H](O)[C@H](O)[C@H]1O', 1040);
